Conditions: buffer; pH 7.4; 200.0 µM
Label 1 (yes) when solubility kinetic is at or above 10 µg/mL; anything below gets 0 (no).

Task: Does Cc1ccc(NS(=O)(=O)c2ccc3c(c2)NC(=O)CO3)cc1 have a reported solubility kinetic of at least 10 µg/mL?
Output: 1 (yes)

Task: Follow-up entry: O=[N+]([O-])c1ccc(O)c(C=Nc2ccc3c(c2)OCO3)c1
Output: 1 (yes)

Task: Also CN(CC(=O)N1CCN(Cc2ccccc2)CC1)C(=O)Cc1ccc(Cl)c(Cl)c1 ?
Output: 1 (yes)

Task: What do you get for CCC(C)c1ccc(NC(=O)c2[nH]c(C)c(C(C)=O)c2C)cc1 (stereo unspecified) ?
Output: 0 (no)

Task: One more compound: O=C(CN1CCCCC1)Nc1ccccc1Cl
Output: 1 (yes)

Task: // repeat for O=C(C#Cc1ccccc1)NCc1ccccc1F and report
Output: 0 (no)

Task: Consider next the compound COc1ccc(C(=O)NCC(=O)N/N=C/c2cccnc2)cc1 in the same way.
Output: 1 (yes)

Task: Do the same for Cc1c(C(=O)N2CCC2)oc2ccc(Br)cc12 please
Output: 1 (yes)

Task: Also Cc1ccc2nc(Nc3ccccc3)cc(C)c2c1 , if possible.
Output: 0 (no)

Task: Another compound to check: Cc1noc(NS(=O)(=O)c2ccc(NC(=O)CC(C)C)cc2)c1C
Output: 1 (yes)

Task: # iterate: COc1cc(C=O)ccc1Oc1ccc(S(=O)(=O)N2CCOCC2)cc1[N+](=O)[O-]
Output: 1 (yes)

* * *

Please provide measured solubility kinetic for the entries that follow.
Settings: buffer; pH 7.4; 200.0 µM
Express it in µg/mL; write the number only.

Task: solubility kinetic lookup needed for Cc1ccc(CNC(=O)C2CC(=O)N(C3CCCC3)C2)cc1 (configuration not stated) , thanks.
Output: 41.2

Task: What do we get for CC(C)NC(=O)N(Cc1ccc(Cl)cc1)Cc1cccs1 ?
Output: 37

Task: Lookup CCn1c(/C=C/c2ccccc2Cl)nc2ccccc2c1=O
Output: 1.7

Task: What about CCCCn1c(SCC(=O)NC2CC2)nc2ccccc2c1=O ?
Output: 2.6

Task: Next record, please: CCCc1cc(=O)[nH]c(SCC(=O)NCCC2=CCCCC2)n1
Output: 48.2

Task: Can you check Cc1ccc(S(=O)(=O)N2CCN(C(=O)CNC(=O)c3ccc(Cl)cc3)CC2)cc1 next?
Output: 8.1

Task: Moving on to COc1cccc(C2Nc3ccccc3C(=O)N2Cc2ccccc2)c1 (configuration not stated)
Output: 17.3

Task: Next record, please: CC(=O)N(CCC(c1ccco1)C(C)C)Cc1ccc(OC(C)C)cc1 (configuration not stated)
Output: 19.5

Task: Please answer likewise for Cc1ccc(NC(=O)C2CC3CCC2C3)c(Br)c1 (configuration not stated)
Output: 1.9

* * *

Assign solubility kinetic to each entry below.
Conditions: buffer; pH 7.4; 200.0 µM
Unit µg/mL implied. Number only.

Task: Given the compound c1cc(CNCCc2ccc3c(c2)OCO3)ccn1 , what is its reported solubility kinetic?
Output: 28.5

Task: Likewise for CCOc1ccccc1NC(=O)/C(C#N)=C/c1cccnc1 ?
Output: 18.8

Task: Another compound to look at: CC(C)=CC1C(C(=O)NCCOc2ccccc2)C1(C)C (stereo not given)
Output: 17.7

Task: Same thing, different compound: COc1ccc(OC)c(NC(=O)c2nc(-c3ccccc3)oc2C)c1
Output: 3.1

Task: Do the same for O=C1NC(=O)C(=Cc2ccc(-c3ccccc3[N+](=O)[O-])o2)C(=O)N1 please
Output: 44.2

Task: Do the same for COC(=O)c1ccc(/C=C/c2nc3ccccc3c(=O)[nH]2)cc1 please
Output: 3.7

Task: For O=[N+]([O-])c1cccc(CNC2CCCCCC2)c1 then?
Output: 24.6

Task: Follow-up item: Cc1cccc(N2CCN(C(=O)c3ccc4ccccc4c3)CC2C)c1 (stereo not given)
Output: 7.4

Task: Next up: Cc1cc(SC2CCOC2=O)nc2ccccc12 (stereo not given)
Output: 35.5

Task: Param item: COc1ccc(Nc2ncnc3sccc23)cc1
Output: 36

Task: Same for Cc1ccc(C(=O)CCC(=O)NC2CCCC(C)C2C)cc1 (stereo not given)
Output: 17.4

Task: Here is the next compound: CC1CCCN(C(=O)COC(=O)COc2ccc(Cl)cc2)C1 (stereo not given)
Output: 20.2

* * *

Could you please report measured solubility kinetic for the items listed next?
Settings: buffer; pH 7.4; 200.0 µM
Provide the reading as a plain figure in µg/mL.

Task: Fill in the blank: the reported solubility kinetic of O=C(c1cnc2nc3ccccc3n2c1)c1cc(F)ccc1O is ____.
Output: 9.2

Task: Could you do the same for Cc1cc(C)nc(/N=C(\N)N2CCc3ccccc32)n1 , please?
Output: 37.1

Task: Please do the same for CC(Sc1nc2ccccc2[nH]1)C(=O)NC1CCCCC1C (centres undefined) as well.
Output: 14.5

Task: Here is the next molecule: Cc1ccc2nc(SCC(=O)N3CCN(c4ccccc4)CC3)[nH]c2c1
Output: 1.7

Task: Then what about the molecule COc1ccc(C(C)NC(=O)C23CC4CC(CC(C4)C2)C3)cc1OC (centres undefined) ?
Output: 40.2

Task: And then Cc1ccc(-n2cnc(N)c2C(=O)c2cccc([N+](=O)[O-])c2)cc1 , what is it?
Output: 16.6

Task: Let us now turn to Cc1ccccc1N1C(=O)c2ccccc2C1O (centres undefined)
Output: 35.8

Task: Now give it for CN(Cc1cccnc1)C(=O)CCCc1c[nH]c2ccccc12 too.
Output: 44.5

Task: Now the molecule CCc1ccc(C(=O)COC(=O)CNC(=O)Cc2ccccc2)cc1
Output: 36.6

Task: Then this molecule: CC1(C)CC(=O)c2cc(NC(=O)c3ccc(F)cc3)c(=O)oc2C1
Output: 2

Task: Subsequent entry: CN1CCN(S(=O)(=O)c2cccc(C(=O)N3CCN(c4ccccc4)CC3)c2)CC1
Output: 63.6

Task: Please answer likewise for Cc1ccc(S(=O)(=O)N2CCOCC2)cc1C(=O)Nc1nc(-c2ccccn2)cs1
Output: 23.9

Task: Same again, this time with COc1ccc(C(=O)NC2CCSc3ccccc32)cc1 (centres undefined)
Output: 6.3

Task: Can you check Cc1occc1C(=O)Nc1cccc([N+](=O)[O-])c1C next?
Output: 36

Task: Would you kindly repeat that for CCOC(=O)c1sc(Nc2nc(C)cc(C)n2)nc1C ?
Output: 1.2

* * *

Conditions: buffer; pH 7.4; 200.0 µM
Measured endpoint: solubility kinetic (µg/mL)
Field format: number, assumed µg/mL, no unit text.

Task: Entry under review: CCOC(=O)N1CCN(S(=O)(=O)c2ccc(C)cc2)C1 . Reported solubility kinetic?
Output: 38

Task: Same read-out for Cc1cc2ncn(S(=O)(=O)c3ccc(F)cc3)c2cc1C ?
Output: 31.8

Task: How about O=C(COC(=O)/C=C/c1cccc(F)c1)NC1CCCCCC1 ?
Output: 5.6

Task: What about COc1ccnc2c1c(=O)n(Cc1c(F)cccc1Cl)c(=O)n2C ?
Output: 9.8

Task: Try this compound next: NS(=O)(=O)c1cccc(C(=O)OCC(=O)NC2CCCc3ccccc32)c1 (stereo not given)
Output: 21.6

Task: # repeat for Cc1cccc(-c2noc(CN(C)C(=O)c3ccoc3C)n2)c1
Output: 40.9

Task: Okay, and COc1cc(Cl)c(C)cc1NC(=O)COC(=O)C1CC1C (stereo not given) ?
Output: 29.9

Task: How about this compound: Cc1ccc(NC(=O)Cc2cc(C(=O)O)c3ccccc3n2)c(C)c1
Output: 2.5

Task: Similarly, Clc1ccc(C2Nc3cccc4cccc(c34)N2)cc1Cl ?
Output: 0.4

Task: Consider next the compound COc1ccc(NC(=O)CC2SC(N3CCCC3)=NC2=O)cc1Cl (stereo not given) in the same way.
Output: 6.8

Task: What about this compound? O=C(Cc1ccccc1)Nc1cc2c(cc1Cl)OCCCO2
Output: 5.5

Task: What about NC(=O)c1ccccc1OCCOc1ccc(Br)cc1 ?
Output: 5.1

Task: Now give it for CCOC(=O)CNC(=O)C1c2ccccc2Oc2ccccc21 too.
Output: 1.9

Task: Same question, Cc1ccc(-c2nc(C=Nc3ccccc3)c(O)o2)cc1 this time
Output: 4.7

Task: Then what about the compound CC(CN1CCCCC1)OC(=O)c1cccc(F)c1.Cl (stereo not given) ?
Output: 42.4

* * *

Conditions: buffer; pH 7.4; 200.0 µM
# if value of solubility kinetic reaches 10 µg/mL, tag 1.0; if it stays below, tag 0.0

Task: Quick check: does Cc1ccc(OCC(=O)NCCCNC(=O)c2ccc(C)nc2)cc1 have solubility kinetic greater than or equal to 10 µg/mL?
Output: 1.0

Task: Then this molecule: Cc1ccc(NS(=O)(=O)c2ccc(C(=O)NCCN3CCOCC3)cc2)cc1.Cl
Output: 1.0

Task: Can you handle Cc1ccccc1-c1nnc(SCCC(=O)N2CCOCC2)o1 next?
Output: 1.0

Task: What about this molecule? Nc1ccc(CCC(=O)N2CCCC2)cc1
Output: 1.0

Task: Consider next the molecule NS(=O)(=O)c1ccc(CCNC(=O)c2ccc(Cl)c(S(=O)(=O)NCc3ccco3)c2)cc1 in the same way.
Output: 1.0

Task: What about this molecule? O=C(Nc1ccc2[nH]c(=O)[nH]c2c1)c1ccc(Br)o1
Output: 0.0

Task: Item: CC(=O)Nc1ccc(NC(=O)COC(=O)C2CCCCC2)cc1
Output: 1.0

Task: Moving on to COCCNC(=O)c1ccc2c(Cl)c3c(nc2c1)CCC3
Output: 1.0

Task: What do we get for CC(=O)c1ccc(S(=O)(=O)NC2CC2)cc1 ?
Output: 1.0

Task: Likewise for COc1ccccc1Cn1c(=S)[nH]c2ccccc2c1=O ?
Output: 0.0

Task: Okay, and NS(=O)(=O)c1cccc(NC(=O)c2cccs2)c1 ?
Output: 1.0

Task: Repeat for the following molecule: CCN(C(=O)c1cccnc1SC)C12CC3CC(CC(C3)C1)C2
Output: 0.0

Task: Next entry: Cc1ccnc(N2C(=O)c3ccc([N+](=O)[O-])cc3C2=O)c1
Output: 1.0

Task: Check Cl.O=S(=O)(N1CCCCCC1)N1CCNCC1 too.
Output: 1.0

Task: Here is the next molecule: CCOc1ncccc1C(=O)Nc1ccc2c(c1)OCCCO2
Output: 1.0

Task: Let us now turn to COc1cc(CNCCNC(=O)c2cccs2)cc(OC)c1OC
Output: 1.0

Task: Repeat with COC(=O)CSc1nc(Cc2ccccc2)nc2ccccc12
Output: 1.0

Task: Request: COCCC(=O)Nc1ccc2c(c1)CN(C(=O)CSC)CC2
Output: 1.0

Task: Subsequent entry: O=C(N/N=C/c1ccc(N2CCOCC2)cc1)c1ccncc1
Output: 1.0

Task: Now try CN(c1ccccc1)S(=O)(=O)c1cc(C(=O)N2CCN(c3ncccn3)CC2)ccc1Cl .
Output: 1.0

Task: Another molecule to check: CCc1ccc(NC(=O)c2ccccc2SC)cc1
Output: 0.0

Task: Next molecule up: COc1ccc(COc2cccnc2N)cc1
Output: 1.0

Task: Same read-out for COc1ccc(/C=C(\C#N)C(=O)Nc2cccc(C)n2)cc1 ?
Output: 0.0

Task: Then this molecule: CCCc1nc2oc3ccccc3c(=O)c2c(=O)n1-c1ccccc1
Output: 1.0

Task: Also need Cc1cc(C)cc(NC(=S)N2CCC(NC(=O)C3CC3)CC2)c1 , thanks.
Output: 1.0

Task: And for CN1CC(C(=O)c2ccc(Cl)cc2)C(c2ccc(N(C)C)cc2)C1 (stereo not given) ?
Output: 1.0

Task: And what about the molecule Cc1ccc(OC(=O)c2cccnc2)cc1 ?
Output: 1.0

Task: Input O=C(COC(=O)c1ccc(Cl)cc1)NCC1CCCCC1
Output: 0.0

Task: Now try N#CC1=C(N)Oc2c(ccc3cccnc23)C1c1ccncc1 (stereo not given) .
Output: 1.0

Task: Let us now turn to Cn1cc(/C=N/NC(N)=S)c2ccccc21
Output: 1.0

Task: And then Cn1c(CN2CCCCC2)nc2cc([N+](=O)[O-])ccc21 , what is it?
Output: 1.0

Task: COc1ccc(-c2cn3cc([N+](=O)[O-])ccc3n2)cc1OC ?
Output: 1.0

Task: Another molecule: OCc1c[nH]c2ccccc12
Output: 0.0

Task: Next up: O=C(CC1CCCCC1)NCc1ccco1
Output: 1.0

Task: // same read-out, input: O=C(Nc1ccc(S(=O)(=O)N2CCCC2)cc1)C1CCCCC1
Output: 1.0

Task: Similarly, O=C1NCCn2ccc(=O)cc21 ?
Output: 1.0

Task: Likewise for O=C(NCC1CC1)Nc1ccc(Cl)cc1 ?
Output: 1.0

Task: Try this molecule too: CC(=O)c1cccc(S(=O)(=O)Nc2ccccc2N2CCOCC2)c1
Output: 1.0

Task: Similarly, CN(CC(=O)Nc1ccc(Br)cc1)Cc1ccccc1 ?
Output: 1.0

Task: Do the same for O=C(c1cccs1)c1c[nH]cc1-c1ccccc1 please
Output: 0.0

Task: Follow-up entry: O=Cc1ccc(OCCOc2ccc([N+](=O)[O-])cc2)cc1
Output: 0.0

Task: Similarly, O=C(O)/C=C/C(=O)NCCc1ccc(Cl)cc1 ?
Output: 1.0

Task: Request: COc1ccc2nc(SCC(=O)NC3CCCCC3)[nH]c2c1
Output: 1.0

Task: Item: Cc1cccc(OC(=O)c2cccnc2)c1C
Output: 1.0

Task: Another molecule: O=c1[nH]c(=O)n(CCc2ccccc2)c(O)c1C=NC1CC1
Output: 1.0

Task: Try this molecule too: COc1ccc(C(=O)NCC2(c3ccccc3)CCCC2)c(OC)c1
Output: 0.0

Task: One more molecule: O=c1oc2ccccc2n1Cc1cccc(C(F)(F)F)c1
Output: 0.0

Task: Request: Cc1ccc2c(c1)oc(=O)n2CC(=O)c1ccccc1
Output: 0.0

Task: Let us now turn to CC1CCC(C(=O)NC(C(=O)Nc2ccccn2)C(C)C)CC1 (stereo not given)
Output: 1.0

Task: Now consider O=C(COC(=O)c1cc(=O)[nH]c2ccccc12)NCc1ccccc1 .
Output: 1.0
